recombinant UMI read abundance (log10): recorded values
assayComment: recombinant UMI read abundance after kanamycin selection (control-corrected) (log10(CPM+1)); higher = more efficient recombination; extreme values may be limits of the assay; sequences stand for … in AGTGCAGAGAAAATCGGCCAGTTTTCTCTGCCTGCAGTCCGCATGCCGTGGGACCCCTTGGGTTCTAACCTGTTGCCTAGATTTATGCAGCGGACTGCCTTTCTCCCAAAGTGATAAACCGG…AGGTTGGTTTCACT; site = the 11-nt donor;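 also: IS621 bridge recombinase in Escherichia coli cells against a fixed T5 target plasmid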

Example results:
Inquiry: Tell me the measured recombinant UMI read abundance (log10) of AGGCAAACATGGACCGGTTTTCCCGGTAATCCGTATTTGTA (site AGGCAAACTTA) , please.
Reply text: 1.9

Inquiry: Tell me the measured recombinant UMI read abundance (log10) of CCTTTCGCATGGACCGGTTTTCCCGGTAATCCGTATTTGAT (site CCTTTCGCTAT) , please.
Reply text: 0.0105

Inquiry: Tell me the measured recombinant UMI read abundance (log10) of ACGGCATCATGGACCGGTTTTCCCGGTAATCCGTATTTGCA (site ACAGTATCTTG) , please.
Reply text: 1.47

Inquiry: Tell me the measured recombinant UMI read abundance (log10) of CATGCCCCATGGACCGGTTTTCCCGGTAATCCGTATTTGGG (site CATGCCCCTCC) , please.
Reply text: 0.00831

Inquiry: Tell me the measured recombinant UMI read abundance (log10) of CGAGGACCATGGACCGGTTTTCCCGGTAATCCGTATTTGGT (site CGAGGACCTGC) , please.
Reply text: 0

New cases:
Inquiry: Tell me the measured recombinant UMI read abundance (log10) of GGTCCAACATGGACCGGTTTTCCCGGTAATCCGTATTTGAT (site GGTCCAACTAT) , please.
Reply text: 0

Inquiry: Tell me the measured recombinant UMI read abundance (log10) of TGGACTCCATGGACCGGTTTTCCCGGTAATCCGTATTTGTT (site CGGAATCCTAA) , please.
Reply text: 0

Inquiry: Tell me the measured recombinant UMI read abundance (log10) of TGCACCGCATGGACCGGTTTTCCCGGTAATCCGTATTTGCG (site TCCACCGCTCG) , please.
Reply text: 0.0173

Inquiry: Tell me the measured recombinant UMI read abundance (log10) of TAGGAATCATGGACCGGTTTTCCCGGTAATCCGTATTTGCA (site TAGGAATCTGG) , please.
Reply text: 0.896

Inquiry: Tell me the measured recombinant UMI read abundance (log10) of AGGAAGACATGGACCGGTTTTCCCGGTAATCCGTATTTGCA (site AGGGTGACTTG) , please.
Reply text: 0.161

Inquiry: Tell me the measured recombinant UMI read abundance (log10) of AGATAATCATGGACCGGTTTTCCCGGTAATCCGTATTTGCG (site AGATAATCTCG) , please.
Reply text: 2.61

Inquiry: Tell me the measured recombinant UMI read abundance (log10) of CGATCGACATGGACCGGTTTTCCCGGTAATCCGTATTTGTT (site CTATCGACTAA) , please.
Reply text: 0.0176

Inquiry: Tell me the measured recombinant UMI read abundance (log10) of CGTTGTACATGGACCGGTTTTCCCGGTAATCCGTATTTGCT (site CGTTGTACTAG) , please.
Reply text: 1.39

Inquiry: Tell me the measured recombinant UMI read abundance (log10) of GTCTTACCATGGACCGGTTTTCCCGGTAATCCGTATTTGCC (site GTCTTACCTGG) , please.
Reply text: 0

Inquiry: Tell me the measured recombinant UMI read abundance (log10) of ACTAGAGCATGGACCGGTTTTCCCGGTAATCCGTATTTGGT (site ACTAGGGCTAC) , please.
Reply text: 0.647

Inquiry: Tell me the measured recombinant UMI read abundance (log10) of TCCCGTTCATGGACCGGTTTTCCCGGTAATCCGTATTTGAA (site TCCCGTTCTTT) , please.
Reply text: 0

Inquiry: Tell me the measured recombinant UMI read abundance (log10) of CCGTTAGCATGGACCGGTTTTCCCGGTAATCCGTATTTGTG (site CCGTTAGCTCG) , please.
Reply text: 0

Inquiry: Tell me the measured recombinant UMI read abundance (log10) of TAAAGTCCATGGACCGGTTTTCCCGGTAATCCGTATTTGCA (site TAAAGTCCTTG) , please.
Reply text: 1.07

Sourced from the supplement of paper PMC11208160
